Data credit: patent US20150099800A1

biological target: rFAAH (Rattus norvegicus); construct: His (N); made in house; host or cells: E. coli (cell line provided by the Cravatt group); experiment: rFAAH coumarin substrate fluorescence assay; assay type: biochemical; conditions: 10 μM
Sequence (P97612 30-579 limits assumed): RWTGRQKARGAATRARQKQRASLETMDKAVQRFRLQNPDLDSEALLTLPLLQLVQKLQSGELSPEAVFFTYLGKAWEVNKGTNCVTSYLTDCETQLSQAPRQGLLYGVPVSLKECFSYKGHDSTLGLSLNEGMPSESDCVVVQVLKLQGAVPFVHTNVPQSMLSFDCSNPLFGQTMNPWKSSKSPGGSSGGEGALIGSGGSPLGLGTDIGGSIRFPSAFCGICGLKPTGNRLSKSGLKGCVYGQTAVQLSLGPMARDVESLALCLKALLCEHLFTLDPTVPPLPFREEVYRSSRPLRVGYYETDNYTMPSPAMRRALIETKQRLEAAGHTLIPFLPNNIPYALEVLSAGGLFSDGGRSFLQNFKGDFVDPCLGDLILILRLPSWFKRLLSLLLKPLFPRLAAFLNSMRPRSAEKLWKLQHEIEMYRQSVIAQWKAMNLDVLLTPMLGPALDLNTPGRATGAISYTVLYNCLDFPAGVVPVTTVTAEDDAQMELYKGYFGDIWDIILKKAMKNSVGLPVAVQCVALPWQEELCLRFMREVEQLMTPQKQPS
Assignment: determine reported rFAAH inhibition at 10 μM (%) for the given compounds.
Numbers only, in %.

Recorded rFAAH inhibition at 10 μM (%), per entry:
-- ask Look up and report measured rFAAH inhibition at 10 μM (%) for this entry: CCCCCCCCCCC[C@@H](C[C@@H]1OC(=O)[C@H]1CCCCCC)OC(=O)[C@@H](NC=O)[C@@H](C)CC
-- reply 7

-- ask Look up and report measured rFAAH inhibition at 10 μM (%) for this entry: CCCCCCCCCCC[C@@H](C[C@@H]1OC(=O)[C@H]1CCCCCC)OC(=O)[C@@H](NC=O)[C@H](C)CC
-- reply 3

-- ask Look up and report measured rFAAH inhibition at 10 μM (%) for this entry: CCCCCCCCCCCC(CC1OC(=O)C1CCCCCC)OC(=O)C(NC=O)C(C)CC (stereo not shown)
-- reply 28

Field: next compound
-- ask Look up and report measured rFAAH inhibition at 10 μM (%) for this entry: CCCCCCCCCCC[C@@H](C[C@@H]1OC(=O)[C@H]1CCCCCC)OC(=O)[C@H](NC=O)[C@@H](C)CC
-- reply 0
